STUDY_SYSTEM: T1, human GPC3-His protein (human, UniProt P51654 25-559)
T1 construct: also called human GPC3 protein; not shown: His tag
ASSAY_DETAILS: SPR, antibody captured on Protein A chip, human GPC3-His analyte;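 also: measured at 25 °C flow cell, human GPC3-His injected at five concentrations up to 200 nM, 240 s association, up to 600 s dissociation, double-referenced, fitted to Langmuir 1:1 model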
EXPERIMENTAL_ENDPOINT: Kd (nM)
Numbers only, in nM.

F1.118.4 (antibody, human IgG1, kappa, V domains shown, Human-murine chimeric antibody) VH: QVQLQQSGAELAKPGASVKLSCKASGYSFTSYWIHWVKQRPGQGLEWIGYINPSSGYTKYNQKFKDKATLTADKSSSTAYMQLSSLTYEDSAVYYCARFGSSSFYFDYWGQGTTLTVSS VL: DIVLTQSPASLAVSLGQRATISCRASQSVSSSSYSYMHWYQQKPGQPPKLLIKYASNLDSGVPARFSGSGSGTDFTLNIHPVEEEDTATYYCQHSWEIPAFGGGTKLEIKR
0.472

Let us examine a further case.
For record F1.136.7 (antibody, human IgG1, kappa, V domains shown, Human-murine chimeric antibody) VH: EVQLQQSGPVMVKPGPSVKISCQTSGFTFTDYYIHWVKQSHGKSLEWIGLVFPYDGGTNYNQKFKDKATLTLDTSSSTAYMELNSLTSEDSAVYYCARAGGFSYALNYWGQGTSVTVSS VL: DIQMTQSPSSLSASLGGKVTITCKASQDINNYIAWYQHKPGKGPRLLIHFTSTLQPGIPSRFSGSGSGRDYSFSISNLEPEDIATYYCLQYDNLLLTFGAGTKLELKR the listed Kd is 0.837
